# System: Candida albicans
# assay-comment: Antimicrobial activity against Candida albicans isolate after 24 to 48 hrs after 24 hrs by disk diffusion method
# Assay type: functional
Property: MIC; scope: individual compounds
Respond with the bare value in mg/L.

Lookup: For Candida albicans, provide MIC of `CCS(=O)(=O)c1ccc2oc(-c3ccc(Cl)cc3)nc2c1` please.
Found: 15.6

Lookup: For Candida albicans, provide MIC of `OC(Cn1cncn1)(Cn1cncn1)c1ccc(F)cc1F` please.
Found: 64

Lookup: For Candida albicans, provide MIC of `CCS(=O)(=O)c1ccc2oc(-c3ccc(Br)cc3)nc2c1` please.
Found: 31.2

Continue with the next compound.
Lookup: For Candida albicans, provide MIC of `CCS(=O)(=O)c1ccc2oc(-c3ccccc3F)nc2c1` please.
Found: 62.5

###

Property: MIC; scope: individual molecules
# Test system: Candida albicans
# assay-comment: Antimicrobial activity against Candida albicans isolate after 24 to 48 hrs after 24 hrs by disk diffusion method
# Assay type: functional
Respond with the bare value in µg/mL.

Recorded MIC, per entry:
Lookup: For Candida albicans, provide MIC of C[C@@H]1[C@H](O)[C@@H](C)/C=C/C=C/C=C/C=C/C=C/C=C/C=C/[C@H](O[C@@H]2O[C@H](C)[C@@H](O)[C@H](N)[C@@H]2O)C[C@@H]2O[C@](O)(C[C@@H](O)C[C@@H](O)[C@H](O)CC[C@@H](O)C[C@@H](O)CC(=O)O[C@H]1C)C[C@H](O)[C@H]2C(=O)O [AMPHOTERICIN B] please.
Found: 1

Lookup: For Candida albicans, provide MIC of `CCS(=O)(=O)c1ccc2oc(-c3ccccc3Br)nc2c1` please.
Found: 62.5

Lookup: For Candida albicans, provide MIC of `CCS(=O)(=O)c1ccc2oc(Cc3ccc(C)cc3)nc2c1` please.
Found: 62.5

***
Lookup: For Candida albicans, provide MIC of `CCS(=O)(=O)c1ccc2oc(-c3ccccc3Cl)nc2c1` please.
Found: 62.5

Lookup: For Candida albicans, provide MIC of `CCc1ccc(-c2nc3cc(S(=O)(=O)CC)ccc3o2)cc1` please.
Found: 15.6

Lookup: For Candida albicans, provide MIC of `CCS(=O)(=O)c1ccc2oc(-c3cccc(C)c3C)nc2c1` please.
Found: 62.5
